The values you see were collected from patent US12018084B2.

- tested system: T1, Human CXCR2 (Homo sapiens, UniProt P25025)
- T1 sequence (P25025 1-360): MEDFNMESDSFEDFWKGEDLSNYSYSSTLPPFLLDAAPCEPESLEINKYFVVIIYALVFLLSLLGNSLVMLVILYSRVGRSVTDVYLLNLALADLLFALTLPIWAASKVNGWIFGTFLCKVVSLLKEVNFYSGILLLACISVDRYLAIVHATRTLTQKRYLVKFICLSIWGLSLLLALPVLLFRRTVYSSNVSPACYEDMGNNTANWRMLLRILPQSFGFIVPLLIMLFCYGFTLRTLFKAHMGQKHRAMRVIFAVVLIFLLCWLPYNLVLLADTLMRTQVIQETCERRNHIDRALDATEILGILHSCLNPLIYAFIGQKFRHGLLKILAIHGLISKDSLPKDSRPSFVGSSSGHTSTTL
- experimental protocol: Tango CXCR2-bla U2OS cell-based β-arrestin recruitment assay
- Design: The beta-arrestin/TEV protease fusion and the beta-lactamase reporter are separate parts of the cell line
- experimental context: CXCL1 or CXCL8 as agonist
property name: potency compared to the parental antibody

molecule | measured value
105c: VH SEQ ID NO: 165, VL SEQ ID NO: 110 (antibody, V domains shown, 4A8 VH Variant 105 M34Q_A40P_R53S_R55G_N56S_ R75K_M96A; 4A8 VL variant c D41G_N52S_N94S) VH: EVQLLESGGGLVQPGGSLRLSCAASGFTFSSSTQSWVRQPPGKGLEWVSAISGSGGSTYYADSVKGRFTISRDNSKNTLYLQMNSLRAEDTAVYYCAIQAGYWGQGILVTVSS VL: QSALTQPPSASGSPGQSVTISCIGTSSDVGGYNYVSWYQQHPGKAPKLMIYEVSKRPSGVPDRFSGSKSGNTASLTVSGLQAEDEADYYCSSYAGSNNFGVFGGGTKLTVL | reduced potency
104c: VH SEQ ID NO: 164, VL SEQ ID NO: 110 (antibody, V domains shown, 4A8 VH Variant 104 M34Q_A40P_R53S_R55G_N56S_ R75K_M96K; 4A8 VL variant c D41G_N52S_N94S) VH: EVQLLESGGGLVQPGGSLRLSCAASGFTFSSSTQSWVRQPPGKGLEWVSAISGSGGSTYYADSVKGRFTISRDNSKNTLYLQMNSLRAEDTAVYYCAIQKGYWGQGILVTVSS VL: QSALTQPPSASGSPGQSVTISCIGTSSDVGGYNYVSWYQQHPGKAPKLMIYEVSKRPSGVPDRFSGSKSGNTASLTVSGLQAEDEADYYCSSYAGSNNFGVFGGGTKLTVL | reduced potency
103c: VH SEQ ID NO: 163, VL SEQ ID NO: 110 (antibody, V domains shown, 4A8 VH Variant 103 M34Q_A40P_R53S_R55G_N56S_ R75K; 4A8 VL variant c D41G_N52S_N94S) VH: EVQLLESGGGLVQPGGSLRLSCAASGFTFSSSTQSWVRQPPGKGLEWVSAISGSGGSTYYADSVKGRFTISRDNSKNTLYLQMNSLRAEDTAVYYCAIQMGYWGQGILVTVSS VL: QSALTQPPSASGSPGQSVTISCIGTSSDVGGYNYVSWYQQHPGKAPKLMIYEVSKRPSGVPDRFSGSKSGNTASLTVSGLQAEDEADYYCSSYAGSNNFGVFGGGTKLTVL | reduced potency
